These measurements were taken from ChEMBL document CHEMBL2331135.

Molecular target: Carbonic anhydrase 1 (Homo sapiens)
Sequence (P00915 whole entry): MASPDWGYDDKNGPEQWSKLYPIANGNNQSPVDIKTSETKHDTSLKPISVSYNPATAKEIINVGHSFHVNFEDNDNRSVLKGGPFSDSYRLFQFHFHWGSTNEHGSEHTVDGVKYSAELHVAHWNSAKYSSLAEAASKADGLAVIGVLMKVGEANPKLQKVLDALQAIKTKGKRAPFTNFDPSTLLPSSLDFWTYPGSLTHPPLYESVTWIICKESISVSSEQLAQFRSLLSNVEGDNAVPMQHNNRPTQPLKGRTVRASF
Test: Inhibition of human carbonic anhydrase 1 preincubated for 10 mins by CO2 hydration stopped-flow assay
measurementType: Ki (µM)
Reply with just the number (in µM).

Asked: Fill in the blank: the reported Ki of Cc1ccc(-c2cc(CO)nn2-c2ccc(S(N)(=O)=O)cc2)cc1 is ____.
Given back: 1.51

====

The molecules below have reported log10 of Ki for Carbonic anhydrase 9 (Homo sapiens).
A difference of one corresponds to tenfold Ki; all values are log10 with Ki in nM.

NS(=O)(=O)c1ccc(-n2nc(CO)cc2-c2cccnc2)cc1    1.11
N#Cc1ccc(-c2cc(CO)nn2-c2ccc(S(N)(=O)=O)cc2)cc1    1.43
NS(=O)(=O)c1ccc(-n2nc(CO)cc2-c2cccc3ccccc23)cc1    2.40
NS(=O)(=O)c1ccc(-n2nc(-c3ccccc3)cc2CO)cc1    2.20
NS(=O)(=O)c1ccc(-n2cc(CO)c(-c3ccc4ccccc4c3)n2)cc1    1.69

Asked: Fill in the blank: the reported log10 of Ki of COc1ccc2cc(-c3nn(-c4ccc(S(N)(=O)=O)cc4)cc3CO)ccc2c1 is ____.
Given back: 1.68

Asked: Fill in the blank: the reported log10 of Ki of COc1ccc2cc(-c3cc(CO)nn3-c3ccc(S(N)(=O)=O)cc3)ccc2c1Br is ____.
Given back: 1.48

Asked: Fill in the blank: the reported log10 of Ki of NS(=O)(=O)c1ccc(-n2nc(CO)cc2-c2ccc(Br)cc2)cc1 is ____.
Given back: 1.18

Asked: Fill in the blank: the reported log10 of Ki of COc1ccc2cc(-c3cc(CO)nn3-c3cccc(S(N)(=O)=O)c3)ccc2c1 is ____.
Given back: 1.46

Asked: Fill in the blank: the reported log10 of Ki of NS(=O)(=O)c1cccc(-n2nc(CO)cc2-c2ccccc2)c1 is ____.
Given back: 1.49
